System: P. aeruginosa
Non-standard residues stand in square brackets, D forms with d. Residues, ends and D or L forms follow the SMILES beside them. Dab = NCC[C@H](N)C(=O)O
Measure Name: Average MIC

IN: For P. aeruginosa, provide Average MIC of CC[C@H](C)[C@@H]1NC(=O)[C@H](Cc2c[nH]c3ccccc23)NC(=O)[C@H](C)NC(=O)[C@@H]2CCCN2C(=O)[C@H]2CCCN2C(=O)[C@H](CCN)NC(=O)[C@H](C(C)C)NC(=O)[C@H](CCN)NC(=O)[C@H](CCN)NC(=O)[C@H](Cc2c[nH]c3ccccc23)NC(=O)[C@H](CCN)NC(=O)[C@H](CCN)NC(=O)[C@H](CCN)NC(=O)[C@H](CCN)NC1=O [Example 23] (cyclo(AWI[Dab][Dab][Dab][Dab]W[Dab][Dab]V[Dab][dP]P)) please.
OUT: >1 µg/mL

---

Measurement Description: in vivo
Set-up: species or system CD-1 mice
Cond: CD-1, mouse, iv, 1 mg/kg
Non-standard residues stand in square brackets, D forms with d. Residues, ends and D or L forms follow the SMILES beside them. Dab = NCC[C@H](N)C(=O)O
Measure Name: level at 3 h (ng/mL)
Write the value in ng/mL as a bare number.

IN: # input molecule: CC[C@H](C)[C@@H]1NC(=O)[C@H](Cc2c[nH]c3ccccc23)NC(=O)[C@H]([C@@H](C)O)NC(=O)[C@@H]2CCCN2C(=O)[C@H]2CCCN2C(=O)[C@H](CCN)NC(=O)[C@H](C)NC(=O)[C@H](CCN)NC(=O)[C@H](CCN)NC(=O)[C@H](Cc2c[nH]c3ccccc23)NC(=O)[C@H](CCN)NC(=O)[C@H](CCN)NC(=O)[C@H](CCCCN)NC(=O)[C@H](CCN)NC1=O [Example 1] (cyclo(TWI[Dab]K[Dab][Dab]W[Dab][Dab]A[Dab][dP]P)) ; wanted: its level at 3 h
OUT: 10.6

---

Kindly state Hemolysis at 100 μg/ml for each of the entries shown.
Test system: human red blood cells (hRBC)
Measurement Description: Hemolysis
Type: cell-based
Cond: 100
Non-standard residues stand in square brackets, D forms with d. Residues, ends and D or L forms follow the SMILES beside them. Dab = NCC[C@H](N)C(=O)O; Nva = CCC[C@H](N)C(=O)O
Write the value in % as a bare number.

IN: For human red blood cells (hRBC), provide Hemolysis at 100 μg/ml of CCC[C@@H]1NC(=O)[C@H](CCN)NC(=O)[C@H](CCN)NC(=O)[C@H](Cc2c[nH]c3ccccc23)NC(=O)[C@H](CCN)NC(=O)[C@H](CCN)NC(=O)[C@H](CCCCN)NC(=O)[C@H](CCN)NC(=O)[C@H]([C@@H](C)CC)NC(=O)[C@H](Cc2c[nH]c3ccccc23)NC(=O)[C@H]([C@@H](C)O)NC(=O)[C@@H]2CCCN2C(=O)[C@H]2CCCN2C(=O)[C@H](CCN)NC1=O [Example 10] (cyclo(TWI[Dab]K[Dab][Dab]W[Dab][Dab][Nva][Dab][dP]P)) please.
OUT: 0

IN: For human red blood cells (hRBC), provide Hemolysis at 100 μg/ml of CC[C@H](C)[C@@H]1NC(=O)[C@H](Cc2c[nH]c3ccccc23)NC(=O)[C@H]([C@@H](C)O)NC(=O)[C@@H]2CCCN2C(=O)[C@H]2CCCN2C(=O)[C@H](CCN)NC(=O)[C@H](C)NC(=O)[C@H](CCN)NC(=O)[C@H](CCN)NC(=O)[C@H](Cc2c[nH]c3ccccc23)NC(=O)[C@H](CCN)NC(=O)[C@H](CCCCN)NC(=O)[C@H](CCCCN)NC(=O)[C@H](CCN)NC1=O [Example 25] (cyclo(TWI[Dab]KK[Dab]W[Dab][Dab]A[Dab][dP]P)) please.
OUT: 0.1

---

Test system: P. aeruginosa ATCC 27853
Format: cell-based, Pseudomonas aeruginosa
Cond: ATCC 27853
Non-standard residues stand in square brackets, D forms with d. Residues, ends and D or L forms follow the SMILES beside them. Cit = NC(=O)NCCC[C@H](N)C(=O)O; dDab = NCC[C@@H](N)C(=O)O; Orn = NCCC[C@H](N)C(=O)O; Dab = NCC[C@H](N)C(=O)O; Nva = CCC[C@H](N)C(=O)O
Measure Name: MIC P. aeruginosa ATCC 27853 (µg/mL)
Write the value in µg/mL as a bare number.

IN: For P. aeruginosa ATCC 27853, provide MIC P. aeruginosa ATCC 27853 of CC[C@H](C)[C@@H]1NC(=O)[C@H](Cc2c[nH]c3ccccc23)NC(=O)[C@H]([C@@H](C)O)NC(=O)[C@@H]2CCCN2C(=O)[C@H]2CCCN2C(=O)[C@H](CCN)NC(=O)[C@H](C(C)C)NC(=O)[C@H](CCN)NC(=O)[C@H](CCN)NC(=O)[C@H](Cc2c[nH]c3ccccc23)NC(=O)[C@H](CCN)NC(=O)[C@H](CCN)NC(=O)[C@H](CCCCN)NC(=O)[C@H](CCC(N)=O)NC1=O [Example 30] (cyclo(TWIQK[Dab][Dab]W[Dab][Dab]V[Dab][dP]P)) please.
OUT: 0.09

IN: For P. aeruginosa ATCC 27853, provide MIC P. aeruginosa ATCC 27853 of CC[C@H](C)[C@@H]1NC(=O)[C@H](Cc2ccc(O)cc2)NC(=O)[C@H](CC(=O)O)NC(=O)[C@@H]2CCCN2C(=O)[C@H]2CCCN2C(=O)[C@H](CCN)NC(=O)[C@H](C)NC(=O)[C@H](CCN)NC(=O)[C@H](CCN)NC(=O)[C@H](Cc2c[nH]c3ccccc23)NC(=O)[C@H](CCN)NC(=O)[C@@H](CCN)NC(=O)[C@H](CCCN)NC(=O)[C@H](CCN)NC1=O [Example 43] (cyclo(DYI[Dab][Orn][dDab][Dab]W[Dab][Dab]A[Dab][dP]P)) please.
OUT: 0.13

IN: For P. aeruginosa ATCC 27853, provide MIC P. aeruginosa ATCC 27853 of CCC[C@@H]1NC(=O)[C@H](CCN)NC(=O)[C@H](CCN)NC(=O)[C@H](Cc2c[nH]c3ccccc23)NC(=O)[C@H](CCN)NC(=O)[C@H](CCN)NC(=O)[C@H](CCCCN)NC(=O)[C@H](CCN)NC(=O)[C@H]([C@@H](C)CC)NC(=O)[C@H](Cc2c[nH]c3ccccc23)NC(=O)[C@H]([C@@H](C)O)NC(=O)[C@@H]2CCCN2C(=O)[C@H]2CCCN2C(=O)[C@H](CCN)NC1=O [Example 10] (cyclo(TWI[Dab]K[Dab][Dab]W[Dab][Dab][Nva][Dab][dP]P)) please.
OUT: 0.05

IN: For P. aeruginosa ATCC 27853, provide MIC P. aeruginosa ATCC 27853 of CC[C@H](C)[C@@H]1NC(=O)[C@H](Cc2c[nH]c3ccccc23)NC(=O)[C@H]([C@@H](C)O)NC(=O)[C@@H]2CCCN2C(=O)[C@H]2CCCN2C(=O)[C@H](CCN)NC(=O)[C@H](C)NC(=O)[C@H](CCN)NC(=O)[C@H](CCN)NC(=O)[C@H](Cc2c[nH]c3ccccc23)NC(=O)[C@H](CCN)NC(=O)[C@H](CCN)NC(=O)[C@H](CCCCN)NC(=O)[C@H](CCC(N)=O)NC1=O [Example 29] (cyclo(TWIQK[Dab][Dab]W[Dab][Dab]A[Dab][dP]P)) please.
OUT: 0.09

IN: For P. aeruginosa ATCC 27853, provide MIC P. aeruginosa ATCC 27853 of CC[C@H](C)[C@@H]1NC(=O)[C@H](Cc2c[nH]c3ccccc23)NC(=O)[C@H](CCCNC(N)=O)NC(=O)[C@@H]2CCCN2C(=O)[C@H]2CCCN2C(=O)[C@H](CCN)NC(=O)[C@H](C)NC(=O)[C@H](CCN)NC(=O)[C@H](CCN)NC(=O)[C@H](Cc2c[nH]c3ccccc23)NC(=O)[C@H](CCN)NC(=O)[C@H](CCN)NC(=O)[C@H](CCCCN)NC(=O)[C@H](CCN)NC1=O [Example 18] (cyclo([Cit]WI[Dab]K[Dab][Dab]W[Dab][Dab]A[Dab][dP]P)) please.
OUT: 0.06

---

System: P. aeruginosa ATCC 27853
Assay type: cell-based, Pseudomonas aeruginosa
Cond: ATCC 27853
Non-standard residues stand in square brackets, D forms with d. Residues, ends and D or L forms follow the SMILES beside them. Cha = N[C@@H](CC1CCCCC1)C(=O)O; Chg = N[C@H](C(=O)O)C1CCCCC1; Nle = CCCC[C@H](N)C(=O)O; Dab = NCC[C@H](N)C(=O)O
One threshold, 0.05 µg/mL, splits the recorded MIC P. aeruginosa ATCC 27853 values: lower ones are MET, equal or higher ones are NOT MET.

IN: Given CC[C@H](C)[C@@H]1NC(=O)[C@H](Cc2c[nH]c3ccccc23)NC(=O)[C@H]([C@@H](C)O)NC(=O)[C@@H]2CCCN2C(=O)[C@H]2CCCN2C(=O)[C@H](CCC(N)=O)NC(=O)[C@H](C)NC(=O)[C@H](CCN)NC(=O)[C@H](CCN)NC(=O)[C@H](Cc2c[nH]c3ccccc23)NC(=O)[C@H](CCN)NC(=O)[C@H](CCN)NC(=O)[C@H](CCCCN)NC(=O)[C@H](CCC(N)=O)NC1=O [Example 40] (cyclo(TWIQK[Dab][Dab]W[Dab][Dab]AQ[dP]P)) , is recorded MIC P. aeruginosa ATCC 27853 strictly lower than 0.05 µg/mL?
OUT: NOT MET

IN: Given CC[C@H](C)[C@@H]1NC(=O)[C@H](Cc2c[nH]c3ccccc23)NC(=O)[C@H]([C@@H](C)O)NC(=O)[C@@H]2CCCN2C(=O)[C@H]2CCCN2C(=O)[C@H](CCN)NC(=O)[C@H](CC2CCCCC2)NC(=O)[C@H](CCN)NC(=O)[C@H](CCN)NC(=O)[C@H](Cc2c[nH]c3ccccc23)NC(=O)[C@H](CCN)NC(=O)[C@H](CCN)NC(=O)[C@H](CCCCN)NC(=O)[C@H](CCN)NC1=O [Example 12] (cyclo(TWI[Dab]K[Dab][Dab]W[Dab][Dab][Cha][Dab][dP]P)) , is recorded MIC P. aeruginosa ATCC 27853 strictly lower than 0.05 µg/mL?
OUT: NOT MET

IN: Given CC[C@H](C)[C@@H]1NC(=O)[C@H](Cc2c[nH]c3ccccc23)NC(=O)[C@H]([C@@H](C)O)NC(=O)[C@@H]2CCCN2C(=O)[C@H]2CCCN2C(=O)[C@H](CCN)NC(=O)[C@H](C)NC(=O)[C@H](CCN)NC(=O)[C@H](CCN)NC(=O)[C@H](Cc2c[nH]c3ccccc23)NC(=O)[C@H](Cc2c[nH]cn2)NC(=O)[C@H](CCN)NC(=O)[C@H](CCCCN)NC(=O)[C@H](CCN)NC1=O [Example 21] (cyclo(TWI[Dab]K[Dab]HW[Dab][Dab]A[Dab][dP]P)) , is recorded MIC P. aeruginosa ATCC 27853 strictly lower than 0.05 µg/mL?
OUT: NOT MET

IN: Given CC[C@H](C)[C@@H]1NC(=O)[C@H](Cc2c[nH]c3ccccc23)NC(=O)[C@H]([C@@H](C)O)NC(=O)[C@@H]2CCCN2C(=O)[C@H]2CCCN2C(=O)[C@H](CCN)NC(=O)[C@H](C2CCCCC2)NC(=O)[C@H](CCN)NC(=O)[C@H](CCN)NC(=O)[C@H](Cc2c[nH]c3ccccc23)NC(=O)[C@H](CCN)NC(=O)[C@H](CCN)NC(=O)[C@H](CCCCN)NC(=O)[C@H](CCN)NC1=O [Example 11] (cyclo(TWI[Dab]K[Dab][Dab]W[Dab][Dab][Chg][Dab][dP]P)) , is recorded MIC P. aeruginosa ATCC 27853 strictly lower than 0.05 µg/mL?
OUT: NOT MET

IN: Given CC[C@H](C)[C@@H]1NC(=O)[C@H](Cc2ccc(O)cc2)NC(=O)[C@H]([C@@H](C)O)NC(=O)[C@@H]2CCCN2C(=O)[C@H]2CCCN2C(=O)[C@H](CCN)NC(=O)[C@H](C)NC(=O)[C@H](CCN)NC(=O)[C@H](CCN)NC(=O)[C@H](Cc2c[nH]c3ccccc23)NC(=O)[C@H](CCN)NC(=O)[C@H](CCN)NC(=O)[C@H](CCCCN)NC(=O)[C@H](CCN)NC1=O [Example 19] (cyclo(TYI[Dab]K[Dab][Dab]W[Dab][Dab]A[Dab][dP]P)) , is recorded MIC P. aeruginosa ATCC 27853 strictly lower than 0.05 µg/mL?
OUT: MET

IN: Given CCCC[C@@H]1NC(=O)[C@H](Cc2c[nH]c3ccccc23)NC(=O)[C@H]([C@@H](C)O)NC(=O)[C@@H]2CCCN2C(=O)[C@H]2CCCN2C(=O)[C@H](CCN)NC(=O)[C@H](C)NC(=O)[C@H](CCN)NC(=O)[C@H](CCN)NC(=O)[C@H](Cc2c[nH]c3ccccc23)NC(=O)[C@H](CCN)NC(=O)[C@H](CCN)NC(=O)[C@H](CCCCN)NC(=O)[C@H](CCN)NC1=O [Example 31] (cyclo(TW[Nle][Dab]K[Dab][Dab]W[Dab][Dab]A[Dab][dP]P)) , is recorded MIC P. aeruginosa ATCC 27853 strictly lower than 0.05 µg/mL?
OUT: MET

IN: Given CC[C@H](C)[C@@H]1NC(=O)[C@H](Cc2c[nH]c3ccccc23)NC(=O)[C@H]([C@@H](C)O)NC(=O)[C@@H]2CCCN2C(=O)[C@H]2CCCN2C(=O)[C@H](CCN)NC(=O)[C@@H](C(C)C)NC(=O)[C@H](CCN)NC(=O)[C@H](CCN)NC(=O)[C@H](Cc2c[nH]c3ccccc23)NC(=O)[C@H](CCN)NC(=O)[C@H](CCN)NC(=O)[C@H](CCCCN)NC(=O)[C@H](CCN)NC1=O [Example 4] (cyclo(TWI[Dab]K[Dab][Dab]W[Dab][Dab][dV][Dab][dP]P)) , is recorded MIC P. aeruginosa ATCC 27853 strictly lower than 0.05 µg/mL?
OUT: NOT MET
